Values compiled from ChEMBL document CHEMBL5137093.

PROTOCOL: Metabolic stability in dog liver microsomes assessed as half life in presence of NADPH
Format: ADME, Canis lupus familiaris, Microsome
MEASUREMENT TYPE: half-life (min)
Numbers only here, please. The scale is min.

Would you kindly share the measured half-life for COC(=O)N[C@H](C(=O)N[C@@H](Cc1ccccc1)[C@H](CN(Cc1ccc(-c2ccccn2)cc1)NC(=O)[C@@H](NC(=O)OC)C(C)(C)C)OC(=O)OC(OC(=O)[C@@H](N)C(C)C)C(C)C)C(C)(C)C (stereo in doubt; 3s) ? 9

====

PROTOCOL: Aqueous solubility of compound at pH 4 by UPLC analysis
Format: physicochemical
ASSAY CONTEXT: aqueous medium, read-out: solubility
MEASUREMENT TYPE: solubility

[[record]]
compound = "COC(=O)N[C@H](C(=O)N[C@@H](Cc1ccccc1)[C@H](CN(Cc1ccc(-c2ccccn2)cc1)NC(=O)[C@@H](NC(=O)OC)C(C)(C)C)OC(=O)OC(OC(=O)[C@@H](N)CC(C)C)C(C)C)C(C)(C)C (stereo in doubt; 3t)"
measurement_type = "solubility"
reported = "> 1100 µg/mL"


# input for lookup
Returns the measured solubility for the input compound. Input: COC(=O)N[C@H](C(=O)N[C@@H](Cc1ccccc1)[C@H](CN(Cc1ccc(-c2ccccn2)cc1)NC(=O)[C@@H](NC(=O)OC)C(C)(C)C)OC(=O)OC(OC(=O)C[C@H](N)Cc1cc(F)c(F)cc1F)C(C)C)C(C)(C)C (stereo in doubt; 3ab) > 910 µg/mL
